// data source = patent US8937084B2

- experimental_system: κ opioid receptor (Homo sapiens (Human), UniProt P41145)
- test_name: κ-opioid receptor [35S]GTPγS functional assay, HEK-293 or CHO cells
- Type: biochemical
- measurement_setup: GTPγS
pEC50: −log10 of the molar value.
Class y: pEC50 at least 6. Class n: pEC50 below 6.

Worked examples, 3 compounds total:
Identify whether the reported pEC50 of the following compound is 6 or greater: O=C1C[C@]23CCN(CC4CC4)[C@H](Cc4ccc(O)cc42)C3=CN1Cc1ccc(O)cc1
y

Test whether the compound Oc1ccc2c(c1)[C@@]13CCNC[C@H]1[C@@H](C2)N(CC1CC1)CC3 records pEC50 of 6 or higher.
y

Hi team, for COc1ccc(CN2CC[C@]34CCN(CC5CC5)[C@H](Cc5ccc(OC)cc53)[C@@H]4C2)cc1 , is the recorded pEC50 at or above 6?
n

---
Determine whether this compound has pEC50 no lower than 6: O=C(O)CN1CC[C@]23CCN(CC4CC4)[C@H](Cc4ccc(O)cc42)[C@@H]3C1
y

In plain terms: is recorded pEC50 at least 6 for Oc1ccc(CN2CC[C@]34CCN(CC5CC5)[C@H](Cc5ccc(O)cc53)[C@@H]4C2)cc1 ?
y
